# Protocol summary: recombinant barcode read abundance after kanamycin selection (control-corrected) (log10(CPM+1)); higher = more efficient recombination; sequences stand for … in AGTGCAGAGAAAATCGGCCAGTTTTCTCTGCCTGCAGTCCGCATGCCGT…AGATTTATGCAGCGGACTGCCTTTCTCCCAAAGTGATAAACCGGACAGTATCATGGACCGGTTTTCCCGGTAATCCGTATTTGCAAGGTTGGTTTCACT; site = the 11-nt target;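 also: IS621 recombinase and bridge RNA in Escherichia coli cells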
Recorded recombinant barcode read abundance (log10) for the following sequences
Respond with the number and no other words.

Guide cases for recombinant barcode read abundance (log10), answers given:
{"columns": ["Sequence", "Recorded number"],
 "data": [
  ["ACACGGACTTGGGTTCTAACCTGTTGCTA (site ACACGGACTTA)", 1.38],
  ["GTCCGTCCTTGGGTTCTAACCTGTTGCTT (site GTCCGTCCTAA)", 0.907],
  ["CGATTAGCTTGGGTTCTAACCTGTTGCCG (site CGATTAGCTCG)", 0.536],
  ["GACATCTCTTGGGTTCTAACCTGTTGCCT (site GACATCACTAG)", 0.105]
]}

Now turn to the next sequence.
Given TGTCGACCTTGGGTTCTAACCTGTTGCCT (site GGTCGACCTAG) , state its recorded recombinant barcode read abundance (log10).
0.0191
